TARGET_OF_ASSAY: Alpha-1B adrenergic receptor (Homo sapiens)
Sequence (P35368 whole entry): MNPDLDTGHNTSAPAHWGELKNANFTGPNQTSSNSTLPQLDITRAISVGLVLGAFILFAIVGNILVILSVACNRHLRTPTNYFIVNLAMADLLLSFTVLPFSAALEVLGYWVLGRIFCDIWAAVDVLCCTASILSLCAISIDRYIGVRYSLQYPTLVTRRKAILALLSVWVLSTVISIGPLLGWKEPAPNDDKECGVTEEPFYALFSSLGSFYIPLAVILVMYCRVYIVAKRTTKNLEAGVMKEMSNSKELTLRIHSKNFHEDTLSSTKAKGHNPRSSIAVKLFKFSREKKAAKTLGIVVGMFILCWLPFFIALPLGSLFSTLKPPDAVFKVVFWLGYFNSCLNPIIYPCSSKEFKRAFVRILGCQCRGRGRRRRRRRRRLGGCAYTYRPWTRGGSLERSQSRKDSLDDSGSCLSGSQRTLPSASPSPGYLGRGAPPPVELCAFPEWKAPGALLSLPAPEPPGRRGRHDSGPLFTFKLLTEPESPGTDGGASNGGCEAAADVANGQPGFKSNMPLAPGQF
MEASUREMENT_NOTES: Inhibition of binding of [125I]HEAT to cloned human alpha-1B adrenergic receptor.
VALUE_KIND: pKi
Hey, just a heads up that pKi is the negative log base 10 of the concentration in molar.

N#CC1(c2ccccc2)CCN(CCCNC(=O)C(c2ccccc2)C2CCCC2)CC1 (racemic) ... 5.70
Cc1ccc(C(C(=O)NCCCN2CCC(c3ccccc3)CC2)c2ccc(C)cc2)cc1 ... 7.47
COC(=O)C1(c2ccccc2)CCN(CCCNC(=O)C(c2ccc(C)cc2)c2ccc(C)cc2)CC1 ... 6.35

Exercise: Observed pKi on Alpha-1B adrenergic receptor (Homo sapiens) for Cc1ccc(C(C(=O)NCCCN2CCC(C(N)=O)(c3ccccc3)CC2)c2ccc(C)cc2)cc1 , please.
Solution: 6.24

Exercise: Query for Alpha-1B adrenergic receptor (Homo sapiens): what pKi does the record show for Cc1ccccc1C1(C#N)CCN(CCCNC(=O)C(c2ccc(Cl)cc2)C(C)C)CC1 (stereo not given) ?
Solution: 6.06
